Form field: T½ (one value per entry).
Biological target: T1, human BCMA (human, UniProt Q02223 1-54)
T1 construct: also called huBCMA; hBCMA
T1 sequence: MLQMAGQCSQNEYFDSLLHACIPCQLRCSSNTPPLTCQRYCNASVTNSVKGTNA
Assay: SPR, immobilised IgG, 37° C

{"columns": ["BINDER", "T½"],
 "data": [
  ["L3.PY/L1.AH/H2.HA (antibody, V domains shown, IgG in the assay) VH: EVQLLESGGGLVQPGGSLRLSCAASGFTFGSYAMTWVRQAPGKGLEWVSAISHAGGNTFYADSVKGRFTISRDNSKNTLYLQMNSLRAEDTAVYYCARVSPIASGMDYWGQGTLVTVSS VL: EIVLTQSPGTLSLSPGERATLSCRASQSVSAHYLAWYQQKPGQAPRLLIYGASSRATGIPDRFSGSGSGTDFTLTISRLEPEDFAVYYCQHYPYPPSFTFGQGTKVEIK", "6.37 min"],
  ["L3.PY/L1.AH/H2.LT (antibody, V domains shown, IgG in the assay) VH: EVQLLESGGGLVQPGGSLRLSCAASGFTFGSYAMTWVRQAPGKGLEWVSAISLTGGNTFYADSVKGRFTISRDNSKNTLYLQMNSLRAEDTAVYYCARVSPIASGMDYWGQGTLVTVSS VL: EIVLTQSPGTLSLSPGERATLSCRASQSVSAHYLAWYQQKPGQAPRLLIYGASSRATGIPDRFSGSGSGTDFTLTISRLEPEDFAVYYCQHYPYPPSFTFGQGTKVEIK", "9.38 min"],
  ["L3.PY/L3.KF/P6E01 (antibody, V domains shown, IgG in the assay) VH: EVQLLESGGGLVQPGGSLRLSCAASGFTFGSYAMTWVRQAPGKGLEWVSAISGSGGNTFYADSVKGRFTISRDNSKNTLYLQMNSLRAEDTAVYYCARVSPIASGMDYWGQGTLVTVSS VL: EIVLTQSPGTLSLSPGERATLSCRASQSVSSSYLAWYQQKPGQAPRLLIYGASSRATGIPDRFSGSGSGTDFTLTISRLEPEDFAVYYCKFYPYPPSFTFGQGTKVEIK", "5.56 min"],
  ["L3.PY/L1.PS/H2.LT (antibody, V domains shown, IgG in the assay) VH: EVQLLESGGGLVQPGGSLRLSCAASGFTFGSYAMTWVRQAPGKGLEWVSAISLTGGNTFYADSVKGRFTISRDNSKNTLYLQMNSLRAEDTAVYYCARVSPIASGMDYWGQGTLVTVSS VL: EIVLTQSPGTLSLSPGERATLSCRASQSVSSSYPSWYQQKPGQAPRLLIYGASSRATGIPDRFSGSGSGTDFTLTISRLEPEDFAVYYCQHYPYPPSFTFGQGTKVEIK", "2.49 min"],
  ["L3.PY/L1.FF/H2.DY (antibody, V domains shown, IgG in the assay) VH: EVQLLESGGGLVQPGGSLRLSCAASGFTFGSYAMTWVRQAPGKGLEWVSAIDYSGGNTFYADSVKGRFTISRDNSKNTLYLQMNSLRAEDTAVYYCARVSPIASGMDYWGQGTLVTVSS VL: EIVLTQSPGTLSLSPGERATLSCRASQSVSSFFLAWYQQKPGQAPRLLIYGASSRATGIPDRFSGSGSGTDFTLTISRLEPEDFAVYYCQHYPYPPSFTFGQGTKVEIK", "4.27 min"]
]}

// data source = patent US20240018252A1
